- Test system: methionyl-tRNA synthetase (Trypanosoma brucei brucei)
- Assay overview: T. brucei MetRS enzyme inhibitors, late-stage follow-up, biochemical, radioactivity, assay provider, round 3 (AID 1053201)
- Details: recombinant T. brucei MetRS enzyme, [3H]methionine tRNA aminoacylation filter assay, 2 h; inhibition; at 1 µM; stronger effect = higher value
Property: inhibition (%)

compound_structure_string=CCN(CC)C(=O)C(=O)c1cn(CC(=O)Nc2cc(Oc3ccccc3OC)cc(C(F)(F)F)c2)c2ccccc12 property=inhibition unit_of_measure=% reading=94.7
compound_structure_string=CCN(CC)C(=O)C(=O)c1cn(CC(=O)Nc2cc(Oc3ccc(OC)cc3)cc(C(F)(F)F)c2)c2ccccc12 property=inhibition unit_of_measure=% reading=92.3
compound_structure_string=CCN(CC)C(=O)C(=O)c1cn(CCNc2cccc(C(F)(F)F)c2)c2ccccc12 property=inhibition unit_of_measure=% reading=-21.5
compound_structure_string=CCN(CC)C(=O)C(=O)c1cn(CCNc2cc(Oc3ccccc3)cc(C(F)(F)F)c2)c2ccccc12 property=inhibition unit_of_measure=% reading=-20.2
compound_structure_string=O=C(Cn1cc(C(=O)C(=O)NCc2ccccc2)c2ccccc21)Nc1cc(Oc2ccccc2)cc(C(F)(F)F)c1 property=inhibition unit_of_measure=% reading=9.14

* * *

- Test system: methionyl-tRNA synthetase (Trypanosoma brucei brucei)
- Assay overview: T. brucei MetRS enzyme inhibitors, late-stage follow-up, biochemical, radioactivity, assay provider, round 3 (AID 1053201)
- Details: recombinant T. brucei MetRS enzyme, [3H]methionine tRNA aminoacylation filter assay, 2 h; at 10 µM
The source made the active and inactive calls. The rule behind the calls is not given here.
Outcome codes: active, inactive

compound_structure_string=CCN(CC)C(=O)C(=O)c1cn(CCNc2cccc(C(F)(F)F)c2)c2ccccc12 classification=inactive
compound_structure_string=CCN(CC)C(=O)Cc1cn(CC(=O)Nc2cccc(C(F)(F)F)c2)c2ccccc12 classification=inactive
compound_structure_string=CCN(CC)C(=O)C(=O)c1cn(CCNc2cc(Oc3ccccc3)cc(C(F)(F)F)c2)c2ccccc12 classification=inactive
compound_structure_string=CCN(CC)C(=O)C(=O)c1cn(CC(=O)Nc2cc(Oc3ccccc3F)cc(C(F)(F)F)c2)c2ccccc12 classification=active
compound_structure_string=O=C(Cn1cc(C(=O)C(=O)NCc2ccccc2)c2ccccc21)Nc1cc(Oc2ccccc2)cc(C(F)(F)F)c1 classification=inactive
compound_structure_string=O=C(Cc1ccc(Nc2nc3ccc(Br)cc3[nH]2)cc1)NCCc1cccs1 classification=inactive
compound_structure_string=CCN(CC)C(=O)C(=O)c1cn(CC(=O)Nc2cc(Oc3ccc(OC)cc3)cc(C(F)(F)F)c2)c2ccccc12 classification=active
compound_structure_string=CCN(CC)C(=O)C(=O)c1cn(CC(=O)Nc2cc(Oc3ccc(F)cc3)cc(C(F)(F)F)c2)c2ccccc12 classification=active
compound_structure_string=CCN(CC)C(=O)C(=O)c1cn(CC(=O)Nc2cc(Oc3ccccc3OC)cc(C(F)(F)F)c2)c2ccccc12 classification=active
compound_structure_string=Nc1c(Cl)ncnc1Nc1ccc(C(=O)O)cc1 classification=inactive

* * *

- System: methionyl-tRNA synthetase (Trypanosoma brucei brucei)
- Assay overview: T. brucei MetRS enzyme inhibitors, late-stage follow-up, biochemical, radioactivity, assay provider, round 3 (AID 1053201)
- Details: recombinant T. brucei MetRS enzyme, [3H]methionine tRNA aminoacylation filter assay, 2 h; inhibition; at 1 µM; stronger effect = higher value
Readings of inhibition for the listed molecules
Property: inhibition (%)

compound_structure_string=O=C(Cc1ccc(Nc2nc3ccc(Br)cc3[nH]2)cc1)NCCc1cccs1 reading=-10.2
compound_structure_string=CCN(CC)C(=O)C(=O)c1cn(CC(=O)Nc2cc(Oc3ccccc3F)cc(C(F)(F)F)c2)c2ccccc12 reading=91.9
compound_structure_string=CCN(CC)C(=O)C(=O)c1cn(CC(=O)Nc2cc(Oc3ccc(F)cc3)cc(C(F)(F)F)c2)c2ccccc12 reading=93.1
compound_structure_string=Nc1c(Cl)ncnc1Nc1ccc(C(=O)O)cc1 reading=-5.91
compound_structure_string=CCN(CC)C(=O)Cc1cn(CC(=O)Nc2cccc(C(F)(F)F)c2)c2ccccc12 reading=-13.1
